- PROCEDURE TEXT: Serum concentration of DHEA after intravaginal application
- Type: in vivo
- ASSAY CONDITIONS: female, rat, 0.33 mg
PARAMETER MEASURED: AUC (µg·h/mL)
Numbers only, in µg·h/mL.

Sample C[C@]12CC[C@H](O)CC1=CC[C@@H]1[C@@H]2CC[C@]2(C)C(=O)CC[C@@H]12 [DHEA, dehydroepiandrosterone] — what was its AUC?
0.032

###

- PROCEDURE TEXT: Serum concentration of DHEA after intravaginal application
- Type: in vivo
- ASSAY CONDITIONS: female, rat, 1 mg
PARAMETER MEASURED: AUC (ng·h/mL)
Give bare numbers, in ng·h/mL.

Suppose we examine the compound C[C@]12CC[C@H](O)CC1=CC[C@@H]1[C@@H]2CC[C@]2(C)C(=O)CC[C@@H]12 [DHEA, dehydroepiandrosterone] ; what AUC value has been reported?
131
